- Target Or Test System: T1, ZFP SBS#1094 (synthetic)
- T1 chain: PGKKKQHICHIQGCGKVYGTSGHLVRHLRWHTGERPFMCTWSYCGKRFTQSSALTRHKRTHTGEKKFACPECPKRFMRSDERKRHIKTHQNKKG
- Assay Explanation: EMSA
- Condition Context: tags: MBP fusion
pKd: −log10 of the molar value.

Binder | pKd
GCGGTTGGT (dsDNA) DNA 1: GCGGTTGGT DNA 2: ACCAACCGC | 7.91
